These data points were gathered from patent US9856288B2.

assay: MTT proliferation inhibition, RPMI8226
pIC50: −log10 of the molar value.
parameter-measured: pIC50

See these solved cases before continuing.
{"molecule": "CC(C)C[C@H](NC(=O)N1CCN(C(=O)c2cnccn2)CC1)C(=O)N[C@@H](Cc1ccccc1)C(=O)N[C@@H](CC(C)C)C(=O)[C@@]1(C)CO1 [Compound 5c]", "pIC50": 7.54}
{"molecule": "CC(C)C[C@H](NC(=O)N1CCC(C(=O)Nc2ccccn2)CC1)C(=O)N[C@@H](Cc1ccccc1)C(=O)N[C@@H](CC(C)C)C(=O)[C@@]1(C)CO1 [Compound 5k]", "pIC50": 8.60}
{"molecule": "CC(C)C[C@H](NC(=O)N1CCC(C(=O)Nc2cnccn2)CC1)C(=O)N[C@@H](Cc1ccccc1)C(=O)N[C@@H](CC(C)C)C(=O)C1(C)CN1 (stereo partly drawn) [Compound 5v]", "pIC50": "< 6.00"}
{"molecule": "CC(C)C[C@H](NC(=O)N1CCC(C(=O)Nc2ccc(F)cc2)CC1)C(=O)N[C@@H](Cc1ccccc1)C(=O)N[C@@H](CC(C)C)C(=O)C1(C)CS1 (stereo partly drawn) [Compound 5u]", "pIC50": "< 6.00"}
{"molecule": "CC(C)C[C@H](NC(=O)N1CCC(C(=O)Nc2cnccn2)CC1)C(=O)N[C@@H](Cc1ccccc1)C(=O)N[C@@H](CC(C)C)C(=O)C1(C)CS1 (stereo partly drawn) [Compound 5t]", "pIC50": "< 6.00"}

Next, consider the following molecule.
pIC50 in this record for CCN1CC1(C)C(=O)[C@H](CC(C)C)NC(=O)[C@H](Cc1ccccc1)NC(=O)[C@H](CC(C)C)NC(=O)N1CCC(C(=O)Nc2cnccn2)CC1 (stereo partly drawn) [Compound 5w] : < 6.00
